tested on: MS2 coat protein; assay: apparent KD of MS2 coat protein; designed switch direction (-1 OFF switch, 1 ON switch): -1; higher = weaker reporter binding; settings: input ligand: none
Classification field: enter TRUE for apparent KD of MS2 coat protein values not below 30 nM, FALSE for values below it.

Before answering, review these 4 worked examples.
sequence content	group
UCUUGUUGUCCUUGAUUUUACAUGAGGAUCACCCAUGUUAUUUUGAUUAUGAUGUGUAAGUUUGUUGCUCGUUUUAU [JR_STOV1_Sub068] (Eterna round: R97, puzzle: Sensor, turn-off variant 1)	TRUE
UUCAGUCUAGAGGAUAUGCUGGAUUAAUAUCUGGCAGAAGGCUGGACAUGAGGAUCACCCAUGUAAAUACUACC [Omei Ex6 A5] (Eterna round: R97, puzzle: Exclusion 6)	TRUE
GCGAGCUGAGGAUAUACAUGAGGAUCACCCAUGUAUUUUGGAAGACUGCCUCCUGCACGUAGAAGGCGGCUCUU [Eternabot (L2) Solution 35] (Eterna round: R97, puzzle: Exclusion 3)	FALSE
CGUCAGUGAGGAUAUGGUAUCGUUUACAUGAGGAUCACCCAUGUUUCAUGGGACUAGAGACUAGAAGGUACUGACG [EX5 #43] (Eterna round: R97, puzzle: Exclusion 5)	TRUE

Now turn to the next sequence.
Has AAUUAGUGAGGAUAUACUAACAGUGAUAGUAGAUAGUGGAUGUAGAAGGCACAUGAGGAUCACCCAUGUUAUAA [EX4 #51] (Eterna round: R97, puzzle: Exclusion 4) a recorded apparent KD of MS2 coat protein greater than or equal to 30 nM?
TRUE
